Target: General amino-acid permease GAP1 (Saccharomyces cerevisiae);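 note: amino acid uptake through Gap1 in nitrogen-starved wild-type yeast cells, measured after 60 s and expressed relative to L-citrulline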
Sequence (whole entry): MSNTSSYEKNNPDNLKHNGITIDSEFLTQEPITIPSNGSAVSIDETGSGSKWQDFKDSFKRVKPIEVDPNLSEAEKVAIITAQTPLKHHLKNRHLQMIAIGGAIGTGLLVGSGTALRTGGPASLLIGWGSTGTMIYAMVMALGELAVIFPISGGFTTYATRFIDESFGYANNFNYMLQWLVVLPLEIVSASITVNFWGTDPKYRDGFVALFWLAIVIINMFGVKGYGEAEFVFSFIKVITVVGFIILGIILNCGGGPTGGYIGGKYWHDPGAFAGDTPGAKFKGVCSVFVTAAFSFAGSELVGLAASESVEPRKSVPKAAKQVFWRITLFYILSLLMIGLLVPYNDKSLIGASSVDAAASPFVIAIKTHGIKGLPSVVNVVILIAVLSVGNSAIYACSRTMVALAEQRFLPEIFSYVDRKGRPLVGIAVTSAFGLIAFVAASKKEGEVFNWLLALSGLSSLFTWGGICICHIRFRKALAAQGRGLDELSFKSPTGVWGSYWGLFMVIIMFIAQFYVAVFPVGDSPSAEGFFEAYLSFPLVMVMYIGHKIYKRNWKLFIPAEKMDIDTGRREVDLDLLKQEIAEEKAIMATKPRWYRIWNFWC
Settings: sigma1278b, at 5 mM
Description: Inhibition of nitrogen-starved wild type sigma1278b yeast Gap1-mediated amino acid uptake at 5 mM after 60 secs relative to L-citrulline
Residues, ends and D or L forms follow the SMILES beside them. *: point of attachment. Boc = CC(C)(C)OC(=O)*
recorded_endpoint: inhibition

compound: CC(C)C[C@H](NC(=O)[C@@H](N)CC(C)C)C(=O)O
recorded_endpoint: inhibition
result: < 15%

compound: CSCC[C@H](NC(=O)CN)C(=O)N[C@@H](CC(C)C)C(=O)O (H-Gly-Met-Leu-OH)
recorded_endpoint: inhibition
result: < 15%

compound: NCC(=O)N[C@@H](Cc1cnc[nH]1)C(=O)O (H-Gly-His-OH)
recorded_endpoint: inhibition
result: < 15%

Q: # lookup: inhibition of NC(=O)[C@H](CCC(=O)O)NC(=O)[C@@H]1CCCN1 (H-Pro-Glu-NH2)
A: < 15%

Q: And for CC[C@H](C)[C@H](NC(=O)CN)C(=O)NCC(=O)O (H-Gly-Ile-Gly-OH) ?
A: < 15%

Q: And for CC(C)C[C@H](NC(=O)[C@@H](N)CC(C)C)C(=O)N[C@@H](CC(=O)O)C(=O)O (H-Leu-Leu-Asp-OH) ?
A: > 30%

Q: And for CC(C)[C@H](N)C(=O)NCC(=O)O (H-Val-Gly-OH) ?
A: < 15%

Q: And for CC(C)(C)OC(=O)[C@@H](N)CSSC[C@H](N)C(=O)OC(C)(C)C ?
A: < 15%

Q: And for CSCC[C@H](N)C(=O)N[C@@H](CCCNC(=N)N)C(=O)N[C@@H](Cc1ccccc1)C(=O)O (H-Met-Arg-Phe-OH) ?
A: 15%

Q: And for N[C@H]1CSSC[C@@H](C(=O)O)NC1=O ?
A: 15%

Q: And for CC(C)(C)OC(=O)NCCC[C@H](N)C(=O)O ?
A: < 15%

Q: And for CC[C@H](C)[C@H](N)C(=O)N[C@@H](CO)C(=O)O (H-Ile-Ser-OH) ?
A: < 15%

Q: And for O=C(N[C@@H](CO)C(=O)O)OCc1ccccc1 ?
A: < 15%

Q: And for C[C@H](N)C(=O)OC(C)(C)C ?
A: < 15%

Q: And for CSCC[C@H](N)C(=O)NCC(=O)NCC(=O)O (H-Met-Gly-Gly-OH) ?
A: < 15%

Q: And for N[C@@H](CO)C(=O)NCC(=O)NCC(=O)O (H-Ser-Gly-Gly-OH) ?
A: < 15%

Q: And for N[C@@H]1CONC1=O ?
A: < 15%

Q: And for CC(C)(C)OC(=O)NCC(=O)N1CCC[C@H]1C(=O)N1CCC[C@H]1C(=O)O (Boc-Gly-Pro-Pro-OH) ?
A: < 15%

Q: And for CC(C)C[C@H](N)C(=O)NCC(=O)NCC(=O)O (H-Leu-Gly-Gly-OH) ?
A: < 15%

Q: And for CC(C)C[C@H](NC(=O)CNC(=O)c1ccccc1)C(N)=O ?
A: < 15%

Q: And for CC(C)(C)OC(=O)N[C@@H](CCCCN)C(=O)O ?
A: < 15%

Q: And for COC(=O)[C@@H]1C[C@@H](O)CN1 ?
A: < 15%
